The values you see were collected from BigSolDB 2.1.

- stated-conditions: in acetonitrile, 303.15 K
parameter: solubility (mole fraction)

// query Please look up its solubility (mole fraction): `O=c1cc(-c2ccccc2)oc2c1ccc1ccccc12`
// result 0.00204

---

- stated-conditions: in n-propanol, 318.2 K
parameter: solubility (mole fraction)

// query Recorded solubility (mole fraction) of `O=c1cc(-c2ccccc2)oc2c1ccc1ccccc12` , please.
// result 0.005

---

- stated-conditions: in 1,4-dioxane, 288.15 K
parameter: solubility (mole fraction)
The reply should be a number, written without any unit.

// query Record request: solubility (mole fraction) value, item `O=c1cc(-c2ccccc2)oc2c1ccc1ccccc12`
// result 0.0128

---

- stated-conditions: in isobutanol, 318.15 K
parameter: solubility (mole fraction)
Lab note: write the figure by itself, no unit.

// query Which solubility (mole fraction) value is on record for `O=c1cc(-c2ccccc2)oc2c1ccc1ccccc12` ?
// result 0.00554

---

- stated-conditions: in ethyl acetate, 278.15 K
parameter: solubility (mole fraction)

// query # lookup: solubility (mole fraction) of `O=c1cc(-c2ccccc2)oc2c1ccc1ccccc12`
// result 0.00331

---

- stated-conditions: in ethyl acetate, 293.15 K
parameter: solubility (mole fraction)
Give the value as a plain number.

// query Which solubility (mole fraction) is reported for this molecule? `O=c1cc(-c2ccccc2)oc2c1ccc1ccccc12`
// result 0.00532

---

- stated-conditions: in methanol, 303.2 K
parameter: solubility (mole fraction)
When you answer, write just the number.

// query I would be grateful if you could share the reported solubility (mole fraction) for `O=c1cc(-c2ccccc2)oc2c1ccc1ccccc12` .
// result 0.00238

---

- stated-conditions: in methanol, 288.2 K
parameter: solubility (mole fraction)
# respond with the number and nothing more

// query What does the record list as solubility (mole fraction) for `O=c1cc(-c2ccccc2)oc2c1ccc1ccccc12` ?
// result 0.00144
